Some molecules, each annotated with its measured log10 of IC50.
Molecular target: STAT3 (Homo sapiens, UniProt P40763)
Construct: plasmid pSTAT3-TA-luc), which contains a stably operating STAT3 promoter; endogenous in cells
Sequence (P40763 whole entry): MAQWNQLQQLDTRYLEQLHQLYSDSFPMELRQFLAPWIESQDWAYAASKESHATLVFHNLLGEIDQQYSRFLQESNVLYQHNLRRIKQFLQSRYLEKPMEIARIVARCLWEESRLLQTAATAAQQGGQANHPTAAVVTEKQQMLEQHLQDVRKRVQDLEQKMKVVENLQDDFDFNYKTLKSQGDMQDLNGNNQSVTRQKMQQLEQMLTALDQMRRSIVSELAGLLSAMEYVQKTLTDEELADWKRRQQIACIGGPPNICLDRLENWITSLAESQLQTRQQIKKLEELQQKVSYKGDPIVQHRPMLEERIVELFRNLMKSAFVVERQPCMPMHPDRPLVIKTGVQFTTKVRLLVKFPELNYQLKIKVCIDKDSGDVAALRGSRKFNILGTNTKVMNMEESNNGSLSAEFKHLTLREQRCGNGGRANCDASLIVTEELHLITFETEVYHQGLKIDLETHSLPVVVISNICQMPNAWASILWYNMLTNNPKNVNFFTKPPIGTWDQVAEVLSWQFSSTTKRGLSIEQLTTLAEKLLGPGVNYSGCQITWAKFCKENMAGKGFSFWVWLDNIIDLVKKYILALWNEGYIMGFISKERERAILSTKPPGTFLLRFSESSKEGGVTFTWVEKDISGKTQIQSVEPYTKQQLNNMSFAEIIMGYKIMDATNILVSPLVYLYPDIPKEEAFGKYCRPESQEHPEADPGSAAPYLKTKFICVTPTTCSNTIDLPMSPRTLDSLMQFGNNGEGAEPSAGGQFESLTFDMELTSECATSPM
Assay: STAT3 reporter gene assay (luciferase), LNCaP stable cell line (pSTAT3-TA-luc), IL-6 stimulation
Format: cell-based
reportedProperty: log10 of IC50 (log10 of the value in µM)

molecule: CN(c1cc2cc(C(=O)Nc3cc(Cl)cc(-c4ccc(F)cc4F)c3)sc2cc1F)S(C)(=O)=O
log10 of IC50: -2.00
//
molecule: CS(=O)(=O)Nc1ccc2c(c1)NC(C(=O)Nc1cccc(-c3ccc(F)cc3F)c1)C2 (stereo not shown)
log10 of IC50: 0.38
//
molecule: COc1cc(C#N)cc(S(=O)(=O)c2cccc(NC(=O)c3cc4ccc(NS(C)(=O)=O)cc4[nH]3)c2)c1
log10 of IC50: 0.56
//
molecule: CC(C)(c1cccc(CN2CCOCC2)c1)c1cc(Br)cc(NC(=O)c2cc3cc(NS(C)(=O)=O)ccc3s2)c1
log10 of IC50: -0.82
//
molecule: CC(C)Oc1cc(OC(F)(F)F)cc(C(C)(C)c2cc(Cl)cc(NC(=O)c3cc4cnc(NS(C)(=O)=O)cc4[nH]3)c2)c1
log10 of IC50: -0.55
//
molecule: CN(c1ccc2sc(C(=O)Nc3cc(Cl)cc(C(C)(C)c4ccc(Cl)cc4)c3)cc2c1)S(C)(=O)=O
log10 of IC50: -1.96
